System: Escherichia coli IAI1
PROTOCOL TEXT: fold change of Putrescine concentration vs plate DMSO controls (fold change (ratio)); higher = more amine produced, active = hit call of the paper (significant change in both replicates, either direction)
CONDITIONS USED: incubation time: 27 h, anaerobic, 37 °C
Counter-ions that a name gives are not always drawn.
Provide the reported fold change of Putrescine concentration of each item.
Give bare numbers.

Examples with answers:
• CC(=O)OCC(=O)[C@@]1(O)CC[C@H]2[C@@H]3CCC4=CC(=O)C=C[C@]4(C)[C@@]3(Cl)[C@@H](Cl)C[C@@]21C [Dichlorisone acetate] (20 µM) = 1.05
• Cc1scc2c1N(C(=O)CN1CCN(C)CC1)c1ccccc1NC2=O [Telenzepine dihydrochloride] (20 µM) = 1.06
• CC(C)OC(=O)C(C(=O)OC(C)C)=C1SC=CS1 [Malotilate] (20 µM) = 1.07
• S=C([S-])NCCNC(=S)[S-].S=C([S-])NCCNC(=S)[S-].[Mn+2].[Zn+2] (20 µM) = 1.02
• Oc1c(Cl)cc(Cl)c(Cl)c1Cc1c(O)c(Cl)cc(Cl)c1Cl (20 µM) = 1.06

For each of the items listed, what is its fold change of Putrescine concentration?
1. CCOC(=O)[C@H](CCc1ccccc1)N[C@@H](C)C(=O)N(CC(=O)O)C1Cc2ccccc2C1 [Delapril Hydrochloride] (20 µM)
2. CCN(CC)C(=O)C1(c2ccccc2)CC1CN (configuration not stated) [Milnacipran hydrochloride] (20 µM)

Response:
1. 1
2. 0.94
